System: Leuconostoc lactis
TEST DETAILS: agar dilution MIC, lactic acid bacteria
Type: cell-based
CONDITION NOTES: Leuconostoc lactis (mean of 2), brain-heart infusion agar
Each entry below carries its recorded MIC.
Write the answer as a number in µg/mL, unit excluded.

- COMPOUND: "CNC(CC(C)C)C(=O)NC1C(=O)NC(CC(N)=O)C(=O)NC2C(=O)NC3C(=O)NC(C(=O)NC(C(=O)O)c4cc(O)cc(O)c4-c4cc3ccc4O)C(OC3CC(C)(N)C(O)C(C)O3)c3ccc(c(Cl)c3)Oc3cc2cc(c3OC2OC(CO)C(O)C(O)C2OC2CC(C)(NCc3ccc(OC4CCCCC4)cc3)C(O)C(C)O2)Oc2ccc(cc2Cl)C1O (stereo not drawn)"
  SYSTEM: "Leuconostoc lactis"
  UNIT: "µg/mL"
  MIC: 16
- COMPOUND: "CNC(CC(C)C)C(=O)NC1C(=O)NC(CC(N)=O)C(=O)NC2C(=O)NC3C(=O)NC(C(=O)NC(C(=O)O)c4cc(O)cc(O)c4-c4cc3ccc4O)C(OC3CC(C)(N)C(O)C(C)O3)c3ccc(c(Cl)c3)Oc3cc2cc(c3OC2OC(CO)C(O)C(O)C2OC2CC(C)(NCc3cccc(Oc4ccccc4)c3)C(O)C(C)O2)Oc2ccc(cc2Cl)C1O (stereo not drawn)"
  SYSTEM: "Leuconostoc lactis"
  UNIT: "µg/mL"
  MIC: 64

Now consider the entry below.
Lookup: For CNC(CC(C)C)C(=O)NC1C(=O)NC(CC(N)=O)C(=O)NC2C(=O)NC3C(=O)NC(C(=O)NC(C(=O)O)c4cc(O)cc(O)c4-c4cc3ccc4O)C(OC3CC(C)(N)C(O)C(C)O3)c3ccc(c(Cl)c3)Oc3cc2cc(c3OC2OC(CO)C(O)C(O)C2OC2CC(C)(NCc3ccc4c(c3)Cc3ccccc3-4)C(O)C(C)O2)Oc2ccc(cc2Cl)C1O (stereo not drawn) , what is its reported MIC?
Found: 16

* * *

Tested on: Haemophilus influenzae RD
TEST DETAILS: broth micro-dilution MIC
Type: cell-based
CONDITION NOTES: Haemophilus influenzae RD
PARAMETER: MIC (µg/mL)
Field format: number, assumed µg/mL, no unit text.

Lookup: Fill blank: measured MIC of the molecule CNC(CC(C)C)C(=O)NC1C(=O)NC(CC(N)=O)C(=O)NC2C(=O)NC3C(=O)NC(C(=O)NC(C(=O)O)c4cc(O)cc(O)c4-c4cc3ccc4O)C(OC3CC(C)(N)C(O)C(C)O3)c3ccc(c(Cl)c3)Oc3cc2cc(c3OC2OC(CO)C(O)C(O)C2OC2CC(C)(NCc3ccc(OCCCCCCc4ccccc4)cc3)C(O)C(C)O2)Oc2ccc(cc2Cl)C1O (centres unmarked) [Compound 219] is ____.
Found: 32

* * *

MIC values by entry
Test system: Haemophilus influenzae RD
TEST DETAILS: broth micro-dilution MIC
Assay type: cell-based
CONDITION NOTES: Haemophilus influenzae RD

Lookup: # get_value(readout='MIC', item= CNC(CC(C)C)C(=O)NC1C(=O)NC(CC(N)=O)C(=O)NC2C(=O)NC3C(=O)NC(C(=O)NC(C(=O)O)c4cc(O)cc(O)c4-c4cc3ccc4O)C(OC3CC(C)(N)C(O)C(C)O3)c3ccc(c(Cl)c3)Oc3cc2cc(c3OC2OC(CO)C(O)C(O)C2OC2CC(C)(NCCCCCCCCOc3ccc(Oc4ccccc4)cc3)C(O)C(C)O2)Oc2ccc(cc2Cl)C1O (stereo not drawn) [Compound 202] )
Found: 32 µg/mL

Lookup: What MIC value was documented for this compound, CNC(CC(C)C)C(=O)NC1C(=O)NC(CC(N)=O)C(=O)NC2C(=O)NC3C(=O)NC(C(=O)NC(C(=O)O)c4cc(O)cc(O)c4-c4cc3ccc4O)C(OC3CC(C)(NCc4ccc([N+](=O)[O-])cc4)C(O)C(C)O3)c3ccc(c(Cl)c3)Oc3cc2cc(c3OC2OC(CO)C(O)C(O)C2OC2CC(C)(NCc3ccc([N+](=O)[O-])cc3)C(O)C(C)O2)Oc2ccc(cc2Cl)C1O (stereo not drawn) [Compound 245] ?
Found: > 64 µg/mL

Lookup: // returns reported MIC for input CNC(CC(C)C)C(=O)NC1C(=O)NC(CC(N)=O)C(=O)NC2C(=O)NC3C(=O)NC(C(=O)NC(C(=O)O)c4cc(O)cc(O)c4-c4cc3ccc4O)C(OC3CC(C)(N)C(O)C(C)O3)c3ccc(c(Cl)c3)Oc3cc2cc(c3OC2OC(CO)C(O)C(O)C2OC2CC(C)(NCc3cccc(Oc4cccc(C(F)(F)F)c4)c3)C(O)C(C)O2)Oc2ccc(cc2Cl)C1O (stereo not drawn) [Compound 203]
Found: 16 µg/mL

* * *

System: vancomycin-resistant enterococci
TEST DETAILS: broth micro-dilution, mean geometric MIC
Assay type: cell-based, Enterococcus faecium and Enterococcus faecalis
CONDITION NOTES: enterococci, 24-hour incubation
Catalogue of mean geometric MIC, Vancomycin Resistant Strains values
Response body: numeric value in µg/mL, unit text excluded.

These recorded examples may help you get a feel for the data.
- COMPOUND: "CNC(CC(C)C)C(=O)NC1C(=O)NC(CC(N)=O)C(=O)NC2C(=O)NC3C(=O)NC(C(=O)NC(C(=O)O)c4cc(O)cc(O)c4-c4cc3ccc4O)C(OC3CC(C)(N)C(O)C(C)O3)c3ccc(c(Cl)c3)Oc3cc2cc(c3OC2OC(CO)C(O)C(O)C2OC2CC(C)(NCc3ccc(OC(C)=O)cc3)C(O)C(C)O2)Oc2ccc(cc2Cl)C1O (stereo not drawn) [Compound 138]"
  SYSTEM: "vancomycin-resistant enterococci"
  NUMERIC RESULT: 38
- COMPOUND: "CC(C)CC(C(=O)NC1C(=O)NC(CC(N)=O)C(=O)NC2C(=O)NC3C(=O)NC(C(=O)NC(C(=O)O)c4cc(O)cc(O)c4-c4cc3ccc4O)C(OC3CC(C)(N)C(O)C(C)O3)c3ccc(c(Cl)c3)Oc3cc2cc(c3OC2OC(CO)C(O)C(O)C2OC2CC(C)(NCc3ccc4c(c3)OCO4)C(O)C(C)O2)Oc2ccc(cc2Cl)C1O)N(C)Cc1ccc2c(c1)OCO2 (stereo not drawn) [Compound 265]"
  SYSTEM: "vancomycin-resistant enterococci"
  NUMERIC RESULT: 54

Note: attention shifts to another entry.
Lookup: Entry under review: CN[C@H](CC(C)C)C(=O)N[C@H]1C(=O)N[C@@H](CC(N)=O)C(=O)N[C@H]2C(=O)N[C@H]3C(=O)N[C@H](C(=O)N[C@H](C(=O)O)c4cc(O)cc(O)c4-c4cc3ccc4O)[C@H](O[C@H]3C[C@](C)(N)[C@@H](O)[C@H](C)O3)c3ccc(c(Cl)c3)Oc3cc2cc(c3O[C@@H]2O[C@H](CO)[C@@H](O)[C@H](O)[C@H]2O[C@H]2C[C@](C)(NCc3ccc(Oc4ccc(C(C)(C)C)cc4)cc3)[C@@H](O)[C@H](C)O2)Oc2ccc(cc2Cl)[C@H]1O [Compound 96] . Reported mean geometric MIC, Vancomycin Resistant Strains?
Found: 1.4

* * *

Test system: Staphylococcus aureus SA1199B
Format: cell-based
PARAMETER: MIC (µg/mL)
Quick reminder: number only, in µg/mL, skip the unit.

// worked examples, MIC included
- MOLECULE: "CNC(CC(C)C)C(=O)NC1C(=O)NC(CC(N)=O)C(=O)NC2C(=O)NC3C(=O)NC(C(=O)NC(C(=O)O)c4cc(O)cc(O)c4-c4cc3ccc4O)C(OC3CC(C)(N)C(O)C(C)O3)c3ccc(c(Cl)c3)Oc3cc2cc(c3OC2OC(CO)C(O)C(O)C2OC2CC(C)(NCc3ccc(N=Nc4ccccc4)cc3)C(O)C(C)O2)Oc2ccc(cc2Cl)C1O (stereo not drawn)"
  NUMERIC RESULT: 0.125
- MOLECULE: "CC(C)CC(C(=O)NC1C(=O)NC(CC(N)=O)C(=O)NC2C(=O)NC3C(=O)NC(C(=O)NC(C(=O)O)c4cc(O)cc(O)c4-c4cc3ccc4O)C(OC3CC(C)(N)C(O)C(C)O3)c3ccc(c(Cl)c3)Oc3cc2cc(c3OC2OC(CO)C(O)C(O)C2OC2CC(C)(NCc3ccc(Cc4ccccc4)cc3)C(O)C(C)O2)Oc2ccc(cc2Cl)C1O)N(C)Cc1ccc(Cc2ccccc2)cc1 (stereo not drawn)"
  NUMERIC RESULT: 2

Lookup: Which MIC value is on record for CNC(CC(C)C)C(=O)NC1C(=O)NC(CC(N)=O)C(=O)NC2C(=O)NC3C(=O)NC(C(=O)NC(C(=O)O)c4cc(O)cc(O)c4-c4cc3ccc4O)C(OC3CC(C)(N)C(O)C(C)O3)c3ccc(c(Cl)c3)Oc3cc2cc(c3OC2OC(CO)C(O)C(O)C2OC2CC(C)(NCc3ccc4c(c3O)Cc3ccccc3-4)C(O)C(C)O2)Oc2ccc(cc2Cl)C1O (stereo not drawn) ?
Found: 2

* * *

Test system: Staphylococcus aureus 447
TEST DETAILS: broth micro-dilution MIC
Type: cell-based
PARAMETER: MIC
Report as: number unit

Consider the worked cases shown below.
- MOLECULE: "CNC(CC(C)C)C(=O)NC1C(=O)NC(CC(N)=O)C(=O)NC2C(=O)NC3C(=O)NC(C(=O)NC(C(=O)O)c4cc(O)cc(O)c4-c4cc3ccc4O)C(OC3CC(C)(N)C(O)C(C)O3)c3ccc(c(Cl)c3)Oc3cc2cc(c3OC2OC(CO)C(O)C(O)C2OC2CC(C)(NCc3ccc(-c4ccccc4C)c(C)c3)C(O)C(C)O2)Oc2ccc(cc2Cl)C1O (stereo not drawn)"
  MIC: "1 µg/mL"
- MOLECULE: "CNC(CC(C)C)C(=O)NC1C(=O)NC(CC(N)=O)C(=O)NC2C(=O)NC3C(=O)NC(C(=O)NC(C(=O)O)c4cc(O)cc(O)c4-c4cc3ccc4O)C(OC3CC(C)(N)C(O)C(C)O3)c3ccc(c(Cl)c3)Oc3cc2cc(c3OC2OC(CO)C(O)C(O)C2OC2CC(C)(NCc3ccc(-c4ccccc4C)cc3)C(O)C(C)O2)Oc2ccc(cc2Cl)C1O (stereo not drawn)"
  MIC: "1 µg/mL"

Note: attention shifts to another entry.
Lookup: If you can, please state the reported MIC value of CCCCCCCCCCC#CCNC1(C)CC(OC2C(Oc3c4cc5cc3Oc3ccc(cc3Cl)C(OC3CC(C)(N)C(O)C(C)O3)C3NC(=O)C(NC(=O)C5NC(=O)C(CC(N)=O)NC(=O)C(NC(=O)C(CC(C)C)NC)C(O)c5ccc(c(Cl)c5)O4)c4ccc(O)c(c4)-c4c(O)cc(O)cc4C(C(=O)O)NC3=O)OC(CO)C(O)C2O)OC(C)C1O (stereo not drawn) .
Found: 2 µg/mL
